Tested on: double-stranded hairpin DNA: 5′-d(GGCAGAAGAAAAAGAGACGC)-C18 spacer-d(GCGTCTCTTTTTCTTCTGCC)-3′ (SEQ ID NO: 23)
test_method_notes: Melting temperature (Tm) measurement, triple strand-forming ability, with double-stranded hairpin DNA
Format: binding
measurement_context: triplex with double-stranded hairpin DNA; footnote: 10 mM sodium phosphate buffer (pH 7.0), 200 mM NaCl, 5 mM MgCl2
Tm listing for selected substances.
Give the quantity in °C, number only.

substance	readout_unit	Tm
5′ -TCTTCTTZTTCTCT-3′: modified oligonucleotide with one Z modification; C shows 2′-deoxy-5-methylcytidine (DNA TCTTCTTTTTCTCT; Z modified nucleotide; 5-methylcytidines; (2)..(2) 2′-Deoxy-5-methylcytidine; (5)..(5) 2′-Deoxy-5-methylcytidine; misc_difference (8)..(8) ENA; (11)..(11) 2′-Deoxy-5-methylcytidine; (13)..(13) 2′-Deoxy-5-methylcytidine)	°C	36

Turning now to a further record.
Recorded Tm for 5′ -TCTTCZTZTZCTCT-3′: modified oligonucleotide with three separated Z modifications (DNA TCTTCTTTTTCTCT; three Z modified nucleotides; (2)..(2) 2′-Deoxy-5-methylcytidine; (5)..(5) 2′-Deoxy-5-methylcytidine; misc_difference (6)..(6) ENA; misc_difference (8)..(8) ENA; misc_difference (10)..(10) ENA; (11)..(11) 2′-Deoxy-5-methylcytidine; (13)..(13) 2′-Deoxy-5-methylcytidine) , please? 51

---

System: single-stranded DNA: 5′-d(ACGAGAACATCC)-3′ (SEQ ID NO: 12)
test_method_notes: Melting temperature (Tm) measurement, double strand-forming ability, with single-stranded DNA
Assay type: binding
measurement_context: duplex with single-stranded DNA SEQ ID NO: 12; 10 mM phosphate buffer (pH7.0), 200 mM NaCl, 2.5 μM each oligonucleotide
reported_property: Tm (°C)
Give the quantity in °C, number only.

As a guide, the following entries are already answered.
substance	readout_unit	Tm
5′-GGATGYTCTCGT-3′: modified oligonucleotide with one Y modification; Y not defined in the visible text (DNA GGATGTTCTCGT; Y modified nucleotide; misc_difference (6)..(6) LNA)	°C	54
5′-GGATGTTCTCGT-3′: unmodified (natural) oligonucleotide, SEQ ID NO: 1 (unmodified DNA)	°C	51

Recorded Tm for 5′-GGAXGXTCTCGT-3′: modified oligonucleotide with two separated X modifications (DNA GGATGTTCTCGT; DNA oligonucleotide with modified nucleotide X, X not given here, further chemistry not given here) , please? 58

---

ΔTm (N = U), in parentheses listing for selected substances.
System: single-stranded RNA:5′-r(ACGAGANCAUCC)-3′, N = U
test_method_notes: Tm measurement with single-stranded RNA (base sequence identifying ability), N = U
Format: binding
measurement_context: mismatch RNA N = U, difference from N = A

substance	reported_property	measured_result
5′-GGATGXTCTCGT-3′: modified oligonucleotide with one X modification; X not defined in the visible text (DNA GGATGTTCTCGT; DNA oligonucleotide with modified nucleotide X, X not given here, further chemistry not given here)	ΔTm (N = U), in parentheses	-14 º C.
5′-GGATGZTCTCGT-3′: modified oligonucleotide with one Z modification; Z not defined in the visible text (DNA GGATGTTCTCGT; Z modified nucleotide; misc_difference (6)..(6) ENA)	ΔTm (N = U), in parentheses	-13 º C.
5′-GGATGYTCTCGT-3′: modified oligonucleotide with one Y modification; Y not defined in the visible text (DNA GGATGTTCTCGT; Y modified nucleotide; misc_difference (6)..(6) LNA)	ΔTm (N = U), in parentheses	-13 º C.

Turning now to a further record.
Recorded ΔTm (N = U), in parentheses for 5′-GGATGTTCTCGT-3′: unmodified (natural) oligonucleotide, SEQ ID NO: 1 (unmodified DNA) , please? -12 º C.

---

System: double-stranded hairpin DNA: 5′-d(GGCAGAAGAAAAAGAGACGC)-C18 spacer-d(GCGTCTCTTTTTCTTCTGCC)-3′ (SEQ ID NO: 23)
test_method_notes: Melting temperature (Tm) measurement, triple strand-forming ability, with double-stranded hairpin DNA
Assay type: binding
measurement_context: triplex with double-stranded hairpin DNA; change per modification vs natural oligonucleotide
ΔTm/mod. listing for selected substances.

As a guide, the following entries are already answered.
substance	ΔTm/mod.
5′ -TCTTCTZZZTCTCT-3′: modified oligonucleotide with three consecutive Z modifications (DNA TCTTCTTTTTCTCT; three Z modified nucleotides; (2)..(2) 2′-Deoxy-5-methylcytidine; (5)..(5) 2′-Deoxy-5-methylcytidine; misc_difference (7)..(7) ENA; misc_difference (8)..(8) ENA; misc_difference (9)..(9) ENA; (11)..(11) 2′-Deoxy-5-methylcytidine; (13)..(13) 2′-Deoxy-5-methylcytidine)	+5.7 °C
5′ -TCTTCTTZTTCTCT-3′: modified oligonucleotide with one Z modification; C shows 2′-deoxy-5-methylcytidine (DNA TCTTCTTTTTCTCT; Z modified nucleotide; 5-methylcytidines; (2)..(2) 2′-Deoxy-5-methylcytidine; (5)..(5) 2′-Deoxy-5-methylcytidine; misc_difference (8)..(8) ENA; (11)..(11) 2′-Deoxy-5-methylcytidine; (13)..(13) 2′-Deoxy-5-methylcytidine)	+5.0 °C
5′ -TCTTCXTXTXCTCT-3′: modified oligonucleotide with three separated X modifications (DNA TCTTCTTTTTCTCT; three X modified nucleotides; (2)..(2) 2′-Deoxy-5-methylcytidine; (5)..(5) 2′-Deoxy-5-methylcytidine; misc_difference (6)..(6) Me-TaNA; misc_difference (8)..(8) Me-TaNA; misc_difference (10)..(10) Me-TaNA; (11)..(11) 2′-Deoxy-5-methylcytidine; (13)..(13) 2′-Deoxy-5-methylcytidine)	+7.3 °C

Recorded ΔTm/mod. for 5′ -TCTTCTXXXTCTCT-3′: modified oligonucleotide with three consecutive X modifications (DNA TCTTCTTTTTCTCT; three X modified nucleotides; (2)..(2) 2′-Deoxy-5-methylcytidine; (5)..(5) 2′-Deoxy-5-methylcytidine; misc_difference (7)..(7) Me-TaNA; misc_difference (8)..(8) Me-TaNA; misc_difference (9)..(9) Me-TaNA; (11)..(11) 2′-Deoxy-5-methylcytidine; (13)..(13) 2′-Deoxy-5-methylcytidine) , please? +6.3 °C

Next entry: 5′ -TCTTCZTZTZCTCT-3′: modified oligonucleotide with three separated Z modifications (DNA TCTTCTTTTTCTCT; three Z modified nucleotides; (2)..(2) 2′-Deoxy-5-methylcytidine; (5)..(5) 2′-Deoxy-5-methylcytidine; misc_difference (6)..(6) ENA; misc_difference (8)..(8) ENA; misc_difference (10)..(10) ENA; (11)..(11) 2′-Deoxy-5-methylcytidine; (13)..(13) 2′-Deoxy-5-methylcytidine) +6.7 °C

---

Test system: single-stranded RNA:5′-r(ACGAGANCAUCC)-3′, N = U
test_method_notes: Tm measurement with single-stranded RNA (base sequence identifying ability), N = U
Type: binding
measurement_context: mismatch RNA N = U; 10 mM sodium phosphate buffer, 200 mM NaCl
Method: A sample solution ([…]) with final concentrations of 10 mM phosphate buffer (pH7.0), 200 mM sodium chloride, and 2.5 μM each oligonucleotide was immersed in boiling water and slowly cooled to room temperature. […] The temperature was raised to 90° C. at a rate of 0.5° C. per minute, and the absorbance at 260 nm was plotted at intervals of 0.5° C. All Tm values were calculated by the midline method and the average of three independent measurement results was taken. […]
reported_property: Tm (N = U) (°C)
Give the quantity in °C, number only.

substance	measured_target	measured_result
5′-GGATGTTCTCGT-3′: unmodified (natural) oligonucleotide, SEQ ID NO: 1 (unmodified DNA)	single-stranded RNA:5′-r(ACGAGANCAUCC)-3′, N = U	40
5′-GGATGZTCTCGT-3′: modified oligonucleotide with one Z modification; Z not defined in the visible text (DNA GGATGTTCTCGT; Z modified nucleotide; misc_difference (6)..(6) ENA)	single-stranded RNA:5′-r(ACGAGANCAUCC)-3′, N = U	45
5′-GGATGXTCTCGT-3′: modified oligonucleotide with one X modification; X not defined in the visible text (DNA GGATGTTCTCGT; DNA oligonucleotide with modified nucleotide X, X not given here, further chemistry not given here)	single-stranded RNA:5′-r(ACGAGANCAUCC)-3′, N = U	44

Turning now to a further record.
Provide the documented Tm (N = U) with single-stranded RNA:5′-r(ACGAGANCAUCC)-3′, N = U as the system for 5′-GGATGYTCTCGT-3′: modified oligonucleotide with one Y modification; Y not defined in the visible text (DNA GGATGTTCTCGT; Y modified nucleotide; misc_difference (6)..(6) LNA) 45

---

ΔTm/mod. listing for selected substances.
System: single-stranded DNA: 5′-d(ACGAGAACATCC)-3′ (SEQ ID NO: 12)
test_method_notes: Melting temperature (Tm) measurement, double strand-forming ability, with single-stranded DNA
Type: binding
measurement_context: duplex with single-stranded DNA SEQ ID NO: 12; change per modification vs natural oligonucleotide

substance	measured_target	ΔTm/mod.
5′-GGATGZTCTCGT-3′: modified oligonucleotide with one Z modification; Z not defined in the visible text (DNA GGATGTTCTCGT; Z modified nucleotide; misc_difference (6)..(6) ENA)	single-stranded DNA: 5′-d(ACGAGAACATCC)-3′ (SEQ ID NO: 12)	+1.0 °C
5′-GGATGXXCTCGT-3′: modified oligonucleotide with two consecutive X modifications (DNA GGATGTTCTCGT; DNA oligonucleotide with modified nucleotide X, X not given here, further chemistry not given here)	single-stranded DNA: 5′-d(ACGAGAACATCC)-3′ (SEQ ID NO: 12)	+3.5 °C
5′-GGAZGZTCTCGT-3′: modified oligonucleotide with two separated Z modifications (DNA GGATGTTCTCGT; two Z modified nucleotides; misc_difference (4)..(4) ENA; misc_difference (6)..(6) ENA)	single-stranded DNA: 5′-d(ACGAGAACATCC)-3′ (SEQ ID NO: 12)	+3.0 °C

Turning now to a further record.
Recorded ΔTm/mod. for 5′-GGAXGXTCTCGT-3′: modified oligonucleotide with two separated X modifications (DNA GGATGTTCTCGT; DNA oligonucleotide with modified nucleotide X, X not given here, further chemistry not given here) , please? +3.5 °C
